Ref: patent US20070270418A1

# STUDY_TARGET: p38α (Homo sapiens, UniProt Q16539)
# Construct: p38 MAP Kinases are recombinant human full-length proteins with an amino-terminal GST fusion; GST (N)
# Sequence (Q16539 whole entry, the tested form may be a part): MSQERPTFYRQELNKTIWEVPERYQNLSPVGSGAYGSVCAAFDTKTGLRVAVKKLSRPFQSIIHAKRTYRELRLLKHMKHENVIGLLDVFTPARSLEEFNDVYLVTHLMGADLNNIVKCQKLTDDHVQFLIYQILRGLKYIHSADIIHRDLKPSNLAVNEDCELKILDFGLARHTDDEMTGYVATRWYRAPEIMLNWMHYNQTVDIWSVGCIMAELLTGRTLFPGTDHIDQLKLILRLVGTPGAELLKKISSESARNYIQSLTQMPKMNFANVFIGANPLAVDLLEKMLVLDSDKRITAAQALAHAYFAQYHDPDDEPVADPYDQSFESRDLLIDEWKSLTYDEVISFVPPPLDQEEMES
# PROCEDURE_SUMMARY: p38 MAP Kinase assay, ATF2 phosphorylation (ELISA)
# MEASUREMENT_PARAMETERS: 40 μM ATP
METRIC: IC50 (nM)

Some entries whose results are on file:
{"COMPOUND": "CCOC(=O)N1CCC(Nc2nccc(-c3c(-c4ccc(F)cc4)nc4sccn34)n2)CC1", "STUDY_TARGET": "p38α (Homo sapiens, UniProt Q16539)", "VALUE_UNIT": "nM", "IC50": 1.19}
{"COMPOUND": "CCOC(=O)Cc1csc2nc(-c3ccc(F)cc3)c(-c3ccnc(NCC4CCCCC4)n3)n12", "STUDY_TARGET": "p38α (Homo sapiens, UniProt Q16539)", "VALUE_UNIT": "nM", "IC50": 1000}
{"COMPOUND": "OCCN(CCO)c1nccc(-c2c(-c3ccc(F)cc3)nc3occn23)n1", "STUDY_TARGET": "p38α (Homo sapiens, UniProt Q16539)", "VALUE_UNIT": "nM", "IC50": 120}

I: CC(C)[C@@H](CO)Nc1nccc(-c2c(-c3ccc(F)cc3)nc3occn23)n1
II: CCOC(=O)Cc1csc2nc(-c3ccc(F)cc3)c(-c3ccnc(NCc4ccco4)n3)n12
III: COc1cccc(-c2nc3sccn3c2-c2ccnc(NCC(O)CO)n2)c1 (stereo not shown)
IV: O[C@H]1CCCC[C@@H]1Nc1nccc(-c2c(-c3ccc(F)cc3)nc3occn23)n1
V: CC(CN(C)C)Nc1nccc(-c2c(-c3ccc(F)cc3)nc3sccn23)n1 (stereo not shown)
Request: Please put the entries in order of rising IC50. Returns: the labels listed in the requested order.
Response: I, V, IV, III, II
(I: 16.7 nM, V: 25.4 nM, IV: 83.3 nM, III: 649 nM, II: 1000 nM)

P: OCCNc1nccc(-c2c(-c3ccc(F)cc3)nc3occn23)n1
Q: CC(O)CN(CC(C)O)c1nccc(-c2c(-c3ccc(F)cc3)nc3sccn23)n1 (stereo not shown)
Request: Sorting ascending by IC50, which comes first: P or Q ? Kindly give the label for the entry you pick.
Response: P

I: Nc1nccc(-c2c(-c3ccc(F)cc3)nc3occn23)n1
II: CC(C)(CO)Nc1nccc(-c2c(-c3ccc(F)cc3)nc3occn23)n1
Request: Of I and II , whose reported IC50 is the larger number? Kindly give the label for the entry you pick.
Response: I
